- System: MRC5 normal human fetal lung fibroblast
- Experiment Notes: MTT cytotoxicity, normal fibroblast cell line
- Type: cell-based
- Test Conditions: normal human fetal lung fibroblast, MTT, 72 h; 95% confidence interval in brackets
- Procedure: The 4-oxoquinoline-3-carboxamide derivatives (0.3125–20 μM) were tested for cytotoxic activity against three cancer cell lines: HCT-116 (colon), ACP03 (gastric), and MDAMB-231 (breast) (Table 1). Active derivatives were also tested against a normal fibroblast cell line (MRC-5). […] Cell viability was determined by the reduction of the yellow dye 3-(4,5-dimethyl-2-thiazol)-2,5-diphenyl-2H-tetrazolium bromide (MTT) to a blue formazan product as described by Mosmann. […]
Readout Type: IC50

{"Compound": "O=C(Nc1cc(Cl)ccc1Cl)c1c[nH]c2ccc(Cl)cc2c1=O [Derivative 17b]", "Study System": "MRC5 normal human fetal lung fibroblast", "IC50": "> 20 µM"}

Request: Quick one: give measured IC50 for Cc1ccc(NC(=O)c2c[nH]c3ccc(Cl)cc3c2=O)cc1 [Derivative 16b]
Response: > 20 µM

Just for reference, paper PMC6271384 is where these values come from.
